Just for reference, patent US20130040983A1 is where these values come from.

# Measured on: V600E mutated B-RAF (Homo sapiens, UniProt P15056, V600E)
# Sequence (P15056 whole entry V600E): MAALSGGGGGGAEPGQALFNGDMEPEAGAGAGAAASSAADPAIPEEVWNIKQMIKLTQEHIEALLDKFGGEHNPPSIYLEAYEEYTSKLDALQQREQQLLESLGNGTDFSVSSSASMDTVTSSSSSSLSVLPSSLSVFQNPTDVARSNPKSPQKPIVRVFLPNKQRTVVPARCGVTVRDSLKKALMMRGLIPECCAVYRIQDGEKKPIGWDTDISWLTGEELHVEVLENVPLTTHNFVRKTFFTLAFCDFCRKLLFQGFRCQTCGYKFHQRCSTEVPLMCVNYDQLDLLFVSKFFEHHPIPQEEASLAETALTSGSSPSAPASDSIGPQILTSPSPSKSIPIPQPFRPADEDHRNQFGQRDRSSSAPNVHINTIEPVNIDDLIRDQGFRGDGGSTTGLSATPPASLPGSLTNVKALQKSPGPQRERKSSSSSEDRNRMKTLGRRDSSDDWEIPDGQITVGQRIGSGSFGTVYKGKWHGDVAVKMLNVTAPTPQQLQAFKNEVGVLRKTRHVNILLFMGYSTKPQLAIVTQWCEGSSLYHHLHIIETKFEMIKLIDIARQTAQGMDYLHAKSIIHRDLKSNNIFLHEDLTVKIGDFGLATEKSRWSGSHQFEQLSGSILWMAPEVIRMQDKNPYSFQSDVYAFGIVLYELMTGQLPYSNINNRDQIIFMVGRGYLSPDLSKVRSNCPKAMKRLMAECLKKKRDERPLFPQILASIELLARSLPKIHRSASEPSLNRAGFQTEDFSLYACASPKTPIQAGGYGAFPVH
# Test summary: In vitro assay for inhibition of mutant B-RAF kinase (recombinant V600E B-RAF, MEK (K97R) substrate)
# Type: biochemical
# Conditions: 10 nM recombinant V600E B-RAF, 1 μM MEK (K97R) substrate; class symbols; read-out: IC50 (μM) V600E B-Raf
Catalogue of compounds with associated IC50
Quantity measured: IC50

INSERT INTO results (compound, measured_on, test_result) VALUES
  ('O=C(O)c1cccc(-c2[nH]c(-c3ccccc3)nc2-c2ccncc2)c1F [Example 8]', 'V600E mutated B-RAF (Homo sapiens, UniProt P15056, V600E)', '0.1 to 1 µM'),
  ('O=C(O)c1cc(F)cc(-c2[nH]c(-c3ccccc3)nc2-c2ccncc2)c1 [Example 6]', 'V600E mutated B-RAF (Homo sapiens, UniProt P15056, V600E)', '0.1 to 1 µM'),
  ('CCCS(=O)(=O)Nc1cccc(-c2[nH]c(-c3ccccc3)nc2-c2ccncc2)c1 [Example 5]', 'V600E mutated B-RAF (Homo sapiens, UniProt P15056, V600E)', '1 to 10 µM'),
  ('O=C(O)c1cccc(-c2[nH]c(-c3ccccc3)nc2-c2ccncc2)c1 [Example 1]', 'V600E mutated B-RAF (Homo sapiens, UniProt P15056, V600E)', '0.1 to 1 µM'),
  ('Cc1ccc(-c2[nH]c(-c3ccccc3)nc2-c2ccncc2)cc1C(=O)O [Example 27]', 'V600E mutated B-RAF (Homo sapiens, UniProt P15056, V600E)', '0.1 to 1 µM');

---

# Measured on: V600E mutated B-RAF (Homo sapiens, UniProt P15056, V600E)
# Test summary: In vitro assay for inhibition of mutant B-RAF kinase (recombinant V600E B-RAF, MEK (K97R) substrate)
# Format: biochemical
# Conditions: 10 nM recombinant V600E B-RAF, 1 μM MEK (K97R) substrate; class symbols; read-out: IC50 (μM) V600E B-Raf
Quantity measured: IC50

INSERT INTO measurements (chem_smiles, test_result) VALUES
  ('O=C(O)c1cc(-c2[nH]c(-c3ccccc3)nc2-c2ccncc2)ccc1Cl', '< 0.1 µM'),
  ('O=C(O)c1ccc(F)c(-c2[nH]c(-c3ccccc3)nc2-c2ccncc2)c1', '1 to 10 µM'),
  ('NC(=O)c1cccc(-c2[nH]c(-c3ccccc3)nc2-c2ccncc2)c1', '1 to 10 µM'),
  ('O=C(O)c1cc(Cl)cc(-c2[nH]c(-c3ccccc3)nc2-c2ccncc2)c1', '0.1 to 1 µM'),
  ('CCS(=O)(=O)Nc1cccc(-c2[nH]c(-c3ccccc3)nc2-c2ccncc2)c1', '1 to 10 µM'),
  ('O=C(O)c1cc(-c2cn(-c3ccccc3)nc2-c2ccncc2)ccc1Cl', '< 0.1 µM'),
  ('CS(=O)(=O)Nc1cc(-c2[nH]c(-c3ccccc3)nc2-c2ccncc2)ccc1Cl', '0.1 to 1 µM'),
  ('O=C(O)c1cc(-c2[nH]c(-c3ccccc3)nc2-c2ccncc2)ccc1F', '0.1 to 1 µM'),
  ('O=C(O)c1cccc(-c2nn(-c3ccccc3)cc2-c2ccncc2)c1', '0.1 to 1 µM'),
  ('O=C(O)c1cccc(-c2cn(-c3ccccc3)nc2-c2ccncc2)c1', '0.1 to 1 µM');
